Target Entity: T1, DDX21ΔN (human, UniProt Q9NR30 186-783)
T1 sequence: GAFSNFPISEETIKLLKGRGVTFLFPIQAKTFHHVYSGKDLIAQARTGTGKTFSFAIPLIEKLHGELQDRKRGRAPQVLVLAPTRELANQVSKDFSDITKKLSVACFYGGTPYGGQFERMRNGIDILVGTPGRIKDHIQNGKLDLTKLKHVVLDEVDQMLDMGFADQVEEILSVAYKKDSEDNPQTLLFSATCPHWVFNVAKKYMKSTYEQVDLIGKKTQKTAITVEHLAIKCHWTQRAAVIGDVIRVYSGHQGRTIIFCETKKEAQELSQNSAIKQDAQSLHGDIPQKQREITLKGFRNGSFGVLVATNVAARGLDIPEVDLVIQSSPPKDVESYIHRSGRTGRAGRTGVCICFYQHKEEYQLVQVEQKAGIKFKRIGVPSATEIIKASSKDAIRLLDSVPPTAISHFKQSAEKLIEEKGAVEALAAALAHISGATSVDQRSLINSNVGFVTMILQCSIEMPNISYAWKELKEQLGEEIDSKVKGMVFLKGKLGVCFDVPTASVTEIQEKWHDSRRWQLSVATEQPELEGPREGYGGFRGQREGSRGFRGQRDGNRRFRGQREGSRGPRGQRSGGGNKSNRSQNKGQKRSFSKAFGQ
Experiment Description: fluorescence polarization; 50 mM KCl; FP: 50 mM Tris pH 7.5, 50 mM KCl, 5 mM MgCl2, no ATP; Hill-slope fit; temperature not given in the material
Details: protein: recombinant; chain copies: 2; label: 5'-FAM; G4
Readout Label: Kd (nM)
The figure you give is taken to be in nM; do not add the unit.

Lab note: measured Kd of GUUGGGGCGGGCGUUGGGUUUGGGGGGACG (structured_RNA) [Q2 RNA G-quadruplex] was 7.6
